experimental-system: T1, 4H3631-AA
T1 chain: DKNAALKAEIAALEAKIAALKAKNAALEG
assay-summary: two-hybrid library CCmax;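 also: natural log of median RNA to DNA barcode read ratio; higher means stronger binding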
settings: mean of both orientations
Can you tell me interaction score for the items I'm about to list?
The response must contain the number and no unit.

Recorded interaction score (binder DEIAALEAEIAALEAENAALKAKNAALKG [4H32-AA] ): -0.675

Recorded interaction score (binder DKIAALKAKIAALKAENAALKAENAALEG [4H2907-AA] ): -1.81

Recorded interaction score (binder DEIAALEAEIAALKAKNAALKAENAALEG [4H123-AA] ): -0.979

Recorded interaction score (binder DKIAALKAEIAALKAENAALEAKNAALKG [4H2648-AA] ): -0.735

Recorded interaction score (binder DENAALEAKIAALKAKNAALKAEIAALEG [4H1401-AA] ): -1.4

Recorded interaction score (binder DENAALKAKIAALKAENAALEAEIAALKG [4H1874-AA] ): -1.14

Recorded interaction score (binder DKIAALKAEIAALEAKNAALEAENAALEG [4H2611-AA] ): -0.311

Recorded interaction score (binder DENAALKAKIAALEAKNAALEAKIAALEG [4H1845-AA] ): -1.57

Recorded interaction score (binder DKIAALEAKNAALKAKNAALKAEIAALEG [4H2553-AA] ): -1.73

Recorded interaction score (binder DKNAALEAEIAALEAKNAALKAKIAALEG [4H3133-AA] ): -0.654

Recorded interaction score (binder DKNAALKAEIAALEAEIAALEAENAALKG [4H3588-AA] ): -0.285

Recorded interaction score (binder DENAALEAKIAALKAKIAALKAENAALKG [4H1388-AA] ): 0.242

Recorded interaction score (binder DKIAALKAKNAALKAKIAALKAKNAALKG [4H3056-AA] ): -1.74

Recorded interaction score (binder DKNAALEAKIAALKAENAALEAKIAALEG [4H3413-AA] ): -1.19

Recorded interaction score (binder DENAALKAEIAALEAKNAALKAEIAALKG [4H1594-AA] ): -1.31

Recorded interaction score (binder DKNAALEAKIAALEAKNAALEAEIAALKG [4H3378-AA] ): -1.65

Recorded interaction score (binder DKNAALEAEIAALKAENAALKAEIAALKG [4H3162-AA] ): -1.62

Sourced from paper PMC10397247
